Where these numbers come from: patent US20250027068

Task for the reader: assign each of the following proteins its reported Enzyme Activity Endpoint Assay: Fab′2.
Target: pooled human IgG
Numbers only, in ng/µL.

Below: 3 proteins and their reported Enzyme Activity Endpoint Assay: Fab′2.
{"protein": "PRT-49 (protein) MANQEIRYSEVTPYHVTSVWTKGVTPPANFTQGEDVFHAPYVANQGWYDITKTFNGKDDLLCGAATAGNMLHWWFDQNKDYIDRYLEEHPEKAKINFNGEQMFDVKEAIDTKNDQTDSKLFEYFKEKAFPYLSTKHLGVFPDHVIDMFINGYRLSLTNHGPTPVKEGSKDPRGGFFDDVFGRGDQSKLLTSRHDFKEKNLKEISDLIKKELTEGKALGLSHTYANVRINHVINLWGADFDSNGNLKAIYVTDSDSNASVGMKKYFVGVNSAGKVAISAKEIKEDNIGAQVLGLFTLSTGQDSWNQTN", "numeric_readout": 30}
{"protein": "PRT-45 (protein) MANQEIRYSEVTPYHVTSVWTKGVTPPANFTQGEDVFHAPYVANQGWYDITKTFNGGDDLLCGAATAGNMLHWWFDQNKEQIDRYLEEHPEKQKINFNGEQMFDVKEAIDTKNSQTDSKLFEYFKEKAFPYLSTKHLGVFPDLVLDMFINGYRLSLTNHGPTPVKEGSKDPRGGIFDAVFTRGDQSKLLTSRHDFKEKNLEEISDLIKKELTEGKALGLSHTYANVRINHVINLWGADFDSNGNLKAIYVTDSDSNASIGMKKYFVGVNSAGKVAISAKEIKEDNIGAQVLGLFTLSTGQDSWNQTN", "numeric_readout": 3}
{"protein": "PRT-39 (protein) MANQEIRYSEVTPYHVTSVWTKGVTPPANFTQGEDVFHAPYVANQGWYDITKTFNGKDDLLCGAATAGNMLHWWFDQNKDQIKRYLEEHPEKQKINFNGEQMFDVKEAIDTKNHQLDSKLFEYFKEKAFPYLSTKHLGVFPDHVIDMFINGYRLSLTNHGPTPVKEGSKDPRGGIFDAVFTRGDQSKLLTSRHDFKEKNLKEISDLIKQELTEGKALGLSHTYANVRINHVINLWGADFDSNGNLKAIYVTDSDSNASIGMKKYFVGVNSAGKVAISAKEIKEDNIGAQVLGLFTLSTGQDSWNQTN", "numeric_readout": 39}

Proceed to the following item.
Data request: # get_value(readout='Enzyme Activity Endpoint Assay: Fab′2', item= PRT-30 (protein) MANQEIRYSEVTPYHVTSVWTKGVTPPANFTQGEDVFHAPYVANQGWYDITKTFNGKDDLLCGAATAGNMLHWWFDQNKDQIKRYLEEHPEKQKINFNGEQMFDVKEAIDTKNHQLDSKLFEYFKEKAFPYLSTKHLGVFPDHVLDMFINGYRLSLTNHGPTPVKEGSKDPRGGIFDAVFTRGDQSKLLTSRHDFKEKTLKEISDLIKKELTEGKALGLSHTYANVRINHVINLWGADFDSEGNLKAIYVTDSDSNASIGMKKYFVGVNSAGKVAISAKEIKEDNIGAQVLGLFTLSTGQDSWNQTN )
Data returned: 3
